Molecular target: T1, GST-MINT1 PDZ domain 1 (Mus musculus (Mouse)), B2RUJ5
T1 chain: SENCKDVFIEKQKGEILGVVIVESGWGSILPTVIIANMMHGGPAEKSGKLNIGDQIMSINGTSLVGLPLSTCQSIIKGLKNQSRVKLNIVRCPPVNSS
Test: G' assay; note: key of the grades not given here
measure: Classification
Your answer should be a number followed by the unit of measure.

{"binder": "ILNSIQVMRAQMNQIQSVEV (modifications not checked) [ephrin B2]", "measure": "Classification", "experimental value": "1 A450 class"}
{"binder": "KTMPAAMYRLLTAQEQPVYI (modifications not checked) [MINT-1]", "measure": "Classification", "experimental value": "3 A450 class"}

Measured Classification, HDFRRAFKKILARGDRKRIV (modifications not checked) [alpha-2A Adrenergic receptor] : 1 A450 class

Measured Classification, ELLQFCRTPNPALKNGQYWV (modifications not checked) [CSPG4 (chondroitin sulfae proteoglycan 4, melanoma-associated)] : 2 A450 class

Measured Classification, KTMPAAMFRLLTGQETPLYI (modifications not checked) [MINT-2] : 2 A450 class

// provenance: patent US20050282743A1
